Where these numbers come from: patent USRE50631

- target_or_system: T1, human receptor tyrosine kinase like orphan receptor 1 (ROR1) (human, UniProt Q01973 30-937)
- T1 construct: whole, on cells; Target in all assays is endogenous ROR1 on human tumor cell lines; the cell line is named under assay; also called cell surface ROR1
- T1 sequence (Q01973 30-937): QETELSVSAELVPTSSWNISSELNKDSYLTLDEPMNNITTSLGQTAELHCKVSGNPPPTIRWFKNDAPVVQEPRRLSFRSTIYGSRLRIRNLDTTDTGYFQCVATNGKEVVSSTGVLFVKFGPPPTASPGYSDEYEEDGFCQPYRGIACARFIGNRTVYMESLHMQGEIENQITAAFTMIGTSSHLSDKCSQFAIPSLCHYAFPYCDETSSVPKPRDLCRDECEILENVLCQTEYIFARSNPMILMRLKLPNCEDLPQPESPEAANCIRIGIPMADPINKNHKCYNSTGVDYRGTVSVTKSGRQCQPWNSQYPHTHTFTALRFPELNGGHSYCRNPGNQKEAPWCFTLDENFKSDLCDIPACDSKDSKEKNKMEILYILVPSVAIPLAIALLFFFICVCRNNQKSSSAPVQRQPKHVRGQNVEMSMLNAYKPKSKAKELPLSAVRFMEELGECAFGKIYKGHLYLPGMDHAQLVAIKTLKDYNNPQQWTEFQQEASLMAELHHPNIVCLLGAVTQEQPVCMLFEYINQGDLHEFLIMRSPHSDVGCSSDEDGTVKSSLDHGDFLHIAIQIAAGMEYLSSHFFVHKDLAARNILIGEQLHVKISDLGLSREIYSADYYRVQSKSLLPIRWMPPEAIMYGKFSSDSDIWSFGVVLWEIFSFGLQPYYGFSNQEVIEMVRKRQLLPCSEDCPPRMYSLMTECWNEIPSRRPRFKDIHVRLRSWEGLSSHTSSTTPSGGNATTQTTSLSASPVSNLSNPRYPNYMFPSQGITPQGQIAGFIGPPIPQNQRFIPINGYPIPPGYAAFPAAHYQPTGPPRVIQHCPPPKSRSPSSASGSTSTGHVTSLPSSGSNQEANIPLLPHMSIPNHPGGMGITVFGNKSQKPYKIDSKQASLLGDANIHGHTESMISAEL
- assay: flow cytometry on Jeko-1 cells (FIG. 3B)
value_type: EC50 (µg/mL)
Express it in µg/mL; write the number only.

[ask] Look up EC50 for this binder: ADC-S (antibody, V domains shown, MAL-VC-PAB-MMAE bonded via cysteine residues of the antibody (positions not stated), Antibody-drug conjugate of D10; also called D10-MAL-VC-PAB-MMAE) VH: QVQLKESGPGLVAPSQTLSITCTVSGFSLTSYGVHWVRQPPGKGLEWLGVIWAGGFTNYNSALKSRLSISKDNSKSQVLLKMTSLQTDDTAMYYCARRGSSYSMDYWGQGTSVIVSS VL: EIVLSQSPAITAASLGQKVTITCSASSNVSYIHWYQQRSGTSPRPWIYEISKLASGVPVRFSGSGSGTSYSLTISSMEAEDAAIYYCQQWNYPLITFGSGTKLEIQ
[reply] 0.15
